Potassium channel subfamily K member 3 (Rattus norvegicus) (UniProt O54912): reported pIC50 for various molecules.
Sequence (O54912 whole entry, looked up): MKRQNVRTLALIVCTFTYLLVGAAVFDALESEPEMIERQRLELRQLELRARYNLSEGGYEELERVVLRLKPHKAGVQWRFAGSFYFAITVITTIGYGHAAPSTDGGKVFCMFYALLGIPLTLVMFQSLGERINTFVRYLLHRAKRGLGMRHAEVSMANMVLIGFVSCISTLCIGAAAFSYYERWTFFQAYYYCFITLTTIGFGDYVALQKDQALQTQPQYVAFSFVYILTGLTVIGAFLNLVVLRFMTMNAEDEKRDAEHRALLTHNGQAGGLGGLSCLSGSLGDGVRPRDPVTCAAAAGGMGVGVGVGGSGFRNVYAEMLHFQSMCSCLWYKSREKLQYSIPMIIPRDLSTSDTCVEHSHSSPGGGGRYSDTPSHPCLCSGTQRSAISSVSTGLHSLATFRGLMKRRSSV
pIC50: −log10 of the molar value.
ENDPOINT NAME: pIC50

Recorded pIC50, per entry:
Provide measured pIC50 value, entry: COc1ccc(CSc2nnc(-c3ccco3)n2C(C)C2CC3CCC2C3)cc1OC (configuration not stated)
5.66

Recall and state the measured pIC50 for C[C@H]([C@@H]1CC2CC[C@H]1C2)n1c(-c2ccco2)n[nH]c1=S .
6.80

Give the reported pIC50 for this molecule. CC(C1CC2CCC1C2)n1c(SCCc2cccc(O)c2)nnc1-c1ccco1 (configuration not stated)
5.78

A = COc1ccc(CC(=O)NCc2ccccc2-c2ccccc2C(=O)NCc2ccc(F)cc2F)cc1
B = C[C@H]([C@@H]1CC2CC[C@H]1C2)n1c(-c2ccccc2F)n[nH]c1=S
Task for the reader: decide whether A or B has the larger pIC50. Your choice should be expressed through its label.
B

a = CC(C1C[C@H]2CCC1C2)n1c(-c2ccsc2)n[nH]c1=S (some centres not stated)
b = COc1ccc(C(=O)CCSc2nnc(-c3ccco3)n2C(C)C2CC3CCC2C3)cc1OC (configuration not stated)
Lab note: check whether a or b shows the higher recorded pIC50. Pick one; state its label.
b

====

Listed here: molecules with reported pIC50 for Potassium channel subfamily K member 3 (Rattus norvegicus).
pIC50: −log10 of the molar value.
ENDPOINT NAME: pIC50

Would you please look over these solved cases?
Kindly indicate its recorded pIC50. Item: CC(C1CC2CCC1C2)n1c(-c2ccco2)nn(CCc2ccncc2)c1=S (stereo unspecified)
5.33

Report pIC50, nothing else, for this molecule: COc1cccc(-c2n[nH]c(=S)n2[C@H](C)[C@@H]2CC3CC[C@H]2C3)c1
5.96

Read off the recorded pIC50 for C[C@H](C1CCCCC1)n1c(-c2ccsc2)n[nH]c1=S
5.22

P = C[C@H](C1CCCCC1)n1c(-c2ccccc2F)n[nH]c1=S
Q = COc1cccc(CCSc2nnc(-c3ccco3)n2C(C)C2CC3CCC2C3)c1 (stereo unspecified)
R = COc1cccc(-c2n[nH]c(=S)n2[C@H](C)C2CCCCC2)c1
Sort ascending by pIC50. Please write the labels in the order that was asked for.
R, P, Q

====

TARGET SYSTEM: Potassium channel subfamily K member 3 (Rattus norvegicus) (UniProt O54912)
Measured IC50 values are reported for all entries that follow.

Guide cases for IC50, answers given:
Give recorded IC50. COc1cccc(-c2nnc(SSc3nnc(-c4cccc(OC)c4)n3C(C)C3CC4CCC3C4)n2C(C)C2CC3CCC2C3)c1 (stereo not given)
1.74 µM

Please look at this compound and report its IC50: CC(C1CC2CCC1C2)n1c(SCCc2ccccn2)nnc1-c1ccco1 (stereo not given)
1.86 µM

Entry CC([C@@H]1CC2CC[C@H]1C2)n1c(-c2ccsc2)n[nH]c1=S (stereo not given in full) needs its IC50 filled in; supply it.
1.17 µM

Continuing:
Please report the measured IC50 for COc1ccc(NC(=O)CSc2nnc(-c3ccco3)n2C(C)C2CC3CCC2C3)cc1OC (stereo not given)
30.3 µM

Return the recorded IC50 value; entry: CC(C1CC2CCC1C2)n1c(SCC(=O)N2CCN(C)CC2)nnc1-c1ccco1 (stereo not given)
24.8 µM

Hey, just so you know, these numbers are from PubChem BioAssay AID623894.
